Biological target: T1, dimeric human PRLR (hPRLR.mFc; SEQ ID NO:402) (Homo sapiens, UniProt P16471)
T1 construct: dimeric (hPRLR.mFc)
T1 sequence (P16471 with tags, fused parts or gaps): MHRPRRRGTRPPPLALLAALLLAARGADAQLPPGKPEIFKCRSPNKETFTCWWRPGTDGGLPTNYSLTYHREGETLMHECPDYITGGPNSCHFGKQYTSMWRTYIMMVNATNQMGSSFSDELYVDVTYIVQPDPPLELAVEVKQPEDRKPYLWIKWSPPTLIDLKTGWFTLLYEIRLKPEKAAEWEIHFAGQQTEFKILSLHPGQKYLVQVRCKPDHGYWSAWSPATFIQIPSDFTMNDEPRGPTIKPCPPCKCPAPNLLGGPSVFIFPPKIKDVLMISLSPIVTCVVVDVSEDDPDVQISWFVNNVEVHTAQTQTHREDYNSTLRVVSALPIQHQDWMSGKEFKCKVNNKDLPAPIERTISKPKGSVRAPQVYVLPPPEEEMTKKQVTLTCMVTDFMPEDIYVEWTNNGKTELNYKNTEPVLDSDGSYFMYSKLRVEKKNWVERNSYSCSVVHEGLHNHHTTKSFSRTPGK
Assay: Surface plasmon resonance (Biacore T200), antibody-capture format
Type: binding
Conditions: 37° C., analyte hPRLR.mFc
measurement.name: ka (M/s)
Answers are plain numbers, in M/s.

Ask | State the recorded ka for this entry: H1H6774P: fully human anti-PRLR antibody, human IgG1 Fc; HCVR/LCVR SEQ ID NOs 34/42 (antibody, V domains shown) VH: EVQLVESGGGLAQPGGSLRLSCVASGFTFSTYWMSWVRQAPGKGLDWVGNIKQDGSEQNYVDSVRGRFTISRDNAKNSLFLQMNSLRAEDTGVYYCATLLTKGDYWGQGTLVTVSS VL: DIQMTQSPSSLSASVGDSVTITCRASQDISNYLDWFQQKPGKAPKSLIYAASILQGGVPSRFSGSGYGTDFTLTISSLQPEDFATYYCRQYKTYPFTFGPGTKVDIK
Reply | 1.41e+06

These measurements were taken from patent US10925971B2.
